- experimental.protocol: NCI Yeast Anticancer Drug Screen. Data for the sgs1 strain (AID 173)
- measurement.context: S. cerevisiae sgs1 mutant, at 100.0 µM
Compounds without any hit were thinned out: in the full panel of roughly 79,000, 15% have a hit. The source made the active and inactive calls. No stated cut-off is given here; in the data, active means growth inhibition above about 70%; inactive means the rest.
Hello, when you answer, please use one of the following outcomes: active, inactive

Problem: Name the outcome recorded for COc1cc(C2SCC(=O)N2c2ccc(-c3ccc(-n4c(-c5ccccc5)nc5ccccc5c4=O)cc3)cc2)cc(OC)c1OC (stereo not given) in the assay.
Result: inactive

Problem: Name the outcome recorded for `O=C(COC(=O)c1cc(O)c(O)c(O)c1)c1ccc(-c2ccccc2)cc1` in the assay.
Result: active

Problem: Name the outcome recorded for `O=C(Nc1ccc(Cl)cc1)OCC#CCCl` in the assay.
Result: active

Problem: Name the outcome recorded for `CCN(CC)CCNc1ccc([N+](=O)[O-])c2nc3ccc(OC)cc3c(N)c12` in the assay.
Result: active

Problem: Name the outcome recorded for `O=C1c2ccccc2C(=O)c2cc(CBr)ccc21` in the assay.
Result: active

Problem: Name the outcome recorded for `CO[C@H]1C[C@](C)(O)Cc2cc3c(c(O)c21)C(=O)c1c(O)cc2c(c1C3=O)O[C@@H]1O[C@@]2(C)[C@H](O)[C@@H](N(C)C)[C@@H]1O` in the assay.
Result: inactive

Problem: Name the outcome recorded for `CC(=O)N/N=C/C(C)(C)C(C)(C)/C=N/NC(C)=O` in the assay.
Result: active

Where these numbers come from: PubChem BioAssay (NCI)
